Source: patent US7919504B2

- Target of assay: PKBα (Homo sapiens)
- Construct: the full length PKBα and a kinase domain of PKBα with pleckstrin domain (amino acids 1-117) deleted
- Sequence (P31749 118-480 limits assumed): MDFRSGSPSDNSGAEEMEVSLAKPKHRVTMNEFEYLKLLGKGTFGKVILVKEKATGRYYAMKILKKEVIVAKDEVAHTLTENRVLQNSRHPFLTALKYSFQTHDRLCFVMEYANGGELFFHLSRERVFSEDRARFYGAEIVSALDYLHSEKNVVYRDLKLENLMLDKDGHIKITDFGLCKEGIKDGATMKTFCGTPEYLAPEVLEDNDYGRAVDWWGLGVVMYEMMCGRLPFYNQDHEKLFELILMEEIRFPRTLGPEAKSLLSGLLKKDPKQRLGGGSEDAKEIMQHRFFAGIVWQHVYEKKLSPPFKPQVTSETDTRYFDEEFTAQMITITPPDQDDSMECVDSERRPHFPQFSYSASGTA
- Protocol description: PKB kinase assay (P33-labeled ATP, synthetic peptide substrate, filter plate capture)
- Assay type: biochemical
- Details: with respect to PKBα
Structures can show the parent of a compound that is named as a salt.
Measure: IC50

For orientation, consider the following solved cases.
Compound: Cn1c(=O)[nH]c2ccc(-c3nnc(NC[C@@H](N)Cc4ccc(C(F)(F)F)cc4)s3)cc21 [Example 1]
IC50: < 0.05 µM
//
Compound: N[C@H](CNc1nnc(-c2cc3c(cc2F)NC(=O)C3)s1)Cc1ccc(C(F)(F)F)cc1 [Example 3]
IC50: 0.05 to 1 µM
//
Compound: N[C@H](CNc1nnc(-c2cc3c(Cl)cncc3s2)s1)Cc1cccc(C(F)(F)F)c1 [Example 8]
IC50: 0.05 to 1 µM
//
Compound: CC(C)=C1C(=O)Nc2ccc(-c3nnc(NC[C@@H](N)Cc4ccc(C(F)(F)F)cc4)s3)cc21 [Example 6]
IC50: 1 to 10 µM
//
Compound: N[C@H](CNc1nnc(-c2cc3ccncc3s2)s1)Cc1ccc(C(F)(F)F)cc1 [Example 10]
IC50: < 0.05 µM

Each compound below has a recorded value; state its IC50.
1. N[C@H](CNc1nnc(-c2ccc3c(c2)CC(=O)N3)s1)Cc1ccc(C(F)(F)F)cc1 [Example 2]
2. N[C@H](CNc1nnc(-c2cc3c(Cl)cncc3s2)s1)Cc1cc(F)cc(F)c1 [Example 14]
3. N[C@H](C(=O)Nc1nnc(-c2ccc3cnccc3c2)s1)[C@@H](CO)c1ccc(C(F)(F)F)cc1 [Example 31, hydrochloride]
4. OC(CNc1nnc(-c2ccc3cnccc3c2)s1)Cc1ccccc1 (racemic) [Example 29]
5. N[C@H](CNc1nnc(-c2ccc3cnc(F)cc3c2)s1)Cc1ccc(C(F)(F)F)nc1 [Example 44, trifluoroacetate]
6. N[C@H](CNc1nnc(-c2ccc3ncncc3c2)s1)Cc1ccc(C(F)(F)F)cc1 [Example 25]
7. N[C@H](CNc1nnc(-c2ccc3c(c2)CC(=O)N3)s1)Cc1ccc(Cl)cc1 [Example 34]
8. c1ccc2[nH]c(CNc3nnc(-c4ccc5cnccc5c4)s3)nc2c1 [Example 18]

< 0.05 µM
0.05 to 1 µM
1 to 10 µM
0.05 to 1 µM
< 0.05 µM
0.05 to 1 µM
< 0.05 µM
1 to 10 µM
